Experiment: growth inhibition of yeast control strain, primary screen, counter-screen for post-Golgi transport modulator project (AID 738)
Details: efflux-deficient yeast background strain, growth absorbance A615, 16 h; at 10 µM
The whole screen tested about 98,000 compounds, of which about 4,900 (5%) were called active. Cut-off read from the data, not from the text of the source: active = inhibition above about 30%; inactive = the rest. The sample holds actives, similar compounds and a random draw of the others, so the mix is not that of the screen.
Outcome codes: active, inactive

compound	cat
N#C/C(=C1/CCCN1)c1ccccn1	inactive
CCc1nc2oc3ccccc3c(=O)c2c(=O)n1Cc1ccc(OC)cc1	inactive
Cc1cccc(C(=O)Nc2ccccc2-c2nnn(CC(=O)Nc3ccc4c(c3)OCCO4)n2)c1	inactive
CCOc1cccc(C(=O)Nc2cccnc2)c1	inactive
Nc1ccc(C(=O)OCC(=O)NC2CCCc3ccccc32)cc1[N+](=O)[O-] (stereo not drawn)	inactive
O=C(CCC(=O)c1cccs1)NCc1ccccc1	inactive
Oc1ccccc1/C=N/n1c(-c2cccs2)n[nH]c1=S	inactive
COc1ccc2nc(N3CCCC(O)C3)c(C#N)cc2c1 (stereo not drawn)	inactive
COc1ccc(C(C(=O)NCc2ccccc2)N(Cc2cccs2)C(=O)c2cnccn2)cc1 (stereo not drawn)	inactive
CCOc1ccc2nc(NCCNS(=O)(=O)c3ccccc3)c(C#N)cc2c1	inactive
O=C(N/N=C/c1ccsc1)c1cc(O)cc(O)c1	inactive
O=C(NNC(=O)c1cccnc1)Nc1ccccc1	inactive
O=C1C=C(c2ccc(Cl)cc2)C(=O)N1Nc1ccccc1	active

---

Assay: growth inhibition of yeast control strain, primary screen, counter-screen for post-Golgi transport modulator project (AID 738)
Settings: efflux-deficient yeast background strain, growth absorbance A615, 16 h; at 10 µM
About 4,900 (5%) of roughly 98,000 compounds were called active. No stated cut-off is given here; in the data, active means inhibition above about 30%; inactive means the rest. The full list was thinned out, with actives kept by preference.
Outcome codes: active, inactive

molecule	cat
Cc1cc2c(cc1C)N(C(=O)CN1C(=O)c3ccccc3C1=O)C(C)(C)c1ssc(=S)c1-2	active
Cn1nnnc1SCC(=O)Nc1ccccc1C(=O)NC1CC1	inactive
Cn1cccc1C1(C(F)(F)F)NCCNC1=O (configuration not stated)	active
Cc1cc(C(=O)Nc2ccccc2N2CCOCC2)c2ccccc2n1	inactive
O=C(CSCc1c(Cl)cccc1Cl)NN1C(=O)c2ccccc2C1=O	inactive
CCOC(=O)CN1C(=O)C(=O)c2cc(C)ccc21	inactive
O=S(=O)(O)c1nc2ccccc2n1Cc1ccc(Cl)cc1	inactive

---

Assay: growth inhibition of yeast control strain, primary screen, counter-screen for post-Golgi transport modulator project (AID 738)
Settings: efflux-deficient yeast background strain, growth absorbance A615, 16 h; at 10 µM
Hit rate of the full screen: of about 98,000 compounds, about 4,900 (5%) were called active. Rule as the data show it: active = inhibition above about 30%; inactive = the rest. This is one part of a sample in which actives are shown more often than they occur.
Outcome codes: 1 (yes) for active, 0 (no) for inactive

compound	cat
O=C(CCn1c(=S)[nH]c2ccccc2c1=O)NCCCN1CCCC1=O	0 (no)
CCn1c(SCCC(C)C)nnc1-c1c[nH]c2ccccc12	1 (yes)
CCOC(=O)c1ccc(N2C(=O)CC(N3CCC(C(=O)OCC)CC3)C2=O)cc1 (centres undefined)	0 (no)
COc1cccc2c1OCC(C(=O)NCc1ccc(Cl)cc1Cl)=C2	0 (no)
OC(COc1ccc2ccccc2c1)CN1CCOCC1 (centres undefined)	0 (no)
COc1ccc(C(F)(F)F)cc1N/C=C\c1nnnn1-c1ccc(C)cc1	0 (no)
CC(Oc1ccc2ccccc2c1)C(=O)NNC(=S)NC(=O)c1ccco1 (centres undefined)	1 (yes)
O=C(NCc1ccccn1)c1cc(-c2ccccc2Cl)on1	0 (no)
Cc1noc(C)c1C(=O)N(CC(=O)NC1CCCC1)Cc1ccccc1F	0 (no)
COCCCn1c(SCc2cccc(OC)c2)nc2cc(OC)c(OC)cc2c1=N	0 (no)
CCOC(=O)C1(S(=O)(=O)c2ccccc2)CCN(Cc2ccccc2)CC1	0 (no)
Cc1ccc(OCC(O)CN2CCN(CC(O)COc3ccc(C)cc3Cl)CC2)c(Cl)c1 (centres undefined)	1 (yes)
CCOc1c2ccc(C(=O)NCc3ccc(OC(F)(F)F)cc3)cc2nn1C	0 (no)
COc1ccc(C(=S)Nc2ccccc2)cc1	0 (no)
O=C(COc1ncnc2c(Cl)cc(Cl)cc12)N1CCN(S(=O)(=O)c2ccccc2)CC1	0 (no)
CCC(=O)NC(=Nc1nc2ccccc2s1)NC(=O)CC	1 (yes)
CCOC(=O)c1c(NC(=S)NC(=O)c2ccco2)sc2c1CCCC2	0 (no)
Cn1c(=O)c2c(ncn2CC(COCc2ccccc2Cl)OCc2ccccc2Cl)n(C)c1=O (centres undefined)	0 (no)
CCOC(=O)CSC1=C(C#N)C(c2sccc2C)CC(=O)N1 (centres undefined)	0 (no)
CCC(C)Sc1nnc(-c2c[nH]c3ccccc23)n1CCOC (centres undefined)	0 (no)
CCCCOC(=O)c1ccc(N2C(=O)CC(N3CCN(C/C=C/c4ccccc4)CC3)C2=O)cc1 (centres undefined)	1 (yes)
O=C(CN1C(=O)CC(c2ccccc2)=Nc2ccccc21)NC1CCCCC1	0 (no)
Cc1cc(OCCOc2cccc3cccnc23)c(C)cc1Cl	0 (no)
COCCNC(=O)COc1ccc(C)c(C)c1	0 (no)
CCNC(=S)NNC(=O)Cc1ccccc1	0 (no)
O=C1c2ccccc2C(=O)c2c1cccc2N1CCN(CCO)CC1	0 (no)
Cc1ccc(C2CC(=O)NC(SCC(=O)OCc3ccccc3)=C2C#N)o1 (centres undefined)	1 (yes)
COC(=O)c1ccccc1NC(=O)CN(Cc1ccc(Cl)cc1)S(C)(=O)=O	0 (no)
Cc1nc(SCC(=O)c2ccccc2)c([N+](=O)[O-])[nH]1	0 (no)

---

Experiment: growth inhibition of yeast control strain, primary screen, counter-screen for post-Golgi transport modulator project (AID 738)
Conditions: efflux-deficient yeast background strain, growth absorbance A615, 16 h; at 10 µM; stronger effect = higher value
Hit rate of the full screen: of about 98,000 compounds, about 4,900 (5%) were called active. What follows is part of a selection rich in actives, with near analogues and random picks from the rest.
Below, each of the molecules is paired with its reported inhibition value.

molecule	inhibition / %
O=C(CNC(=O)Cc1ccccc1)NCC(=O)OCC(=O)c1ccccc1Cl	13.6
COc1ccc2c(c1)SC(C)CC2=O (stereo not given)	-5.53
COc1ccc(Nc2nc(-c3ccccc3)cs2)cc1	6.6
O=C1OC(c2ccc(Cl)cc2)=N/C1=C\c1cccnc1	-10.4
Cc1ccccc1NC(=O)c1ccccc1NS(=O)(=O)c1cccc2cccnc12	8.21
Cc1nn(C)c(Oc2ccc(Cl)cc2)c1C=O	2.69
NC(=O)c1nsc(C(=O)N(CC(=O)NCc2ccc(F)cc2)Cc2ccco2)c1N	-18.4
Cc1cc(C)nc(NC(=O)C(C)N2C(=O)c3ccccc3C2=O)n1 (stereo not given)	-0.16
Cc1[nH]nc(-c2ccc(OCc3cnn(-c4ccccc4)c3)cc2O)c1Oc1ccc(Cl)cc1	0
COc1ccc(OC)c(Nc2nc(-c3ccc(O)c(O)c3)cs2)c1	34.6
O=c1cc(C(F)(F)F)[nH]c(=O)n1C1CCCCC1	23.5
c1cnc(Nc2nc(-c3ccc4ccccc4c3)cs2)nc1	2.57
Cc1ccc(-c2n[nH]c(=S)n2/N=C/c2cc3c(cc2[N+](=O)[O-])OCO3)cc1	-11.7
COC(=O)c1cc(OC)ccc1-c1ccc(OC)cc1	18.8
COc1ccc2c(c1)OC(O)(C(F)(F)C(F)F)CC2=O (stereo not given)	34.1

---

Assay: growth inhibition of yeast control strain, primary screen, counter-screen for post-Golgi transport modulator project (AID 738)
Settings: efflux-deficient yeast background strain, growth absorbance A615, 16 h; at 10 µM
Out of some 98,000 compounds screened, about 4,900 (5%) were called active. No stated cut-off is given here; in the data, active means inhibition above about 30%; inactive means the rest. What follows is part of a selection rich in actives, with near analogues and random picks from the rest.
Outcome codes: true for active, false for inactive

compound	cat
O=C(CSc1nnc(-c2cccs2)n1-c1ccccc1)NCc1ccco1	false
CCn1c(SCC(=O)c2ccc3ccccc3c2)nnc1-c1cccs1	false
CCN(CC)c1nc(-c2ccccc2)cc(C(F)(F)F)c1C#N	false
Cc1ccccc1C(OCC(O)CN1CCCCC1CCO)c1ccccc1 (stereo not given)	true
Cc1nnc(SCC(=O)N2CCN(c3ccccc3)CC2)n1-c1ccccc1	false
CCOc1ccccc1C1C(C(=O)OC)=CN(C)C=C1C(=O)OC	false
CC(C)(C)Cc1nnc(NC(=O)c2cc(-c3ccccc3)nc3ccccc23)s1	false
O=C(N/N=C/C=C/c1ccccc1)C1CC1(c1ccccc1)c1ccccc1 (stereo not given)	true
CCCSc1nsc(N)n1	false
O=C(/C=C/c1ccco1)Nc1cccc(-c2nc3ccccc3[nH]2)c1	false
